subject-of-test: human full length PIK3KA H1047R mutant (p110α/p85α complex) (Homo sapiens, UniProt P42336, H1047R)
Construct: Recombinant, catalytically active human full length PIK3KA Wild-type and H1047R mutant were purchased; 6xHis (N); purchased EMD Millipore Sigma 14-792M
Sequence (P42336 whole entry H1047R): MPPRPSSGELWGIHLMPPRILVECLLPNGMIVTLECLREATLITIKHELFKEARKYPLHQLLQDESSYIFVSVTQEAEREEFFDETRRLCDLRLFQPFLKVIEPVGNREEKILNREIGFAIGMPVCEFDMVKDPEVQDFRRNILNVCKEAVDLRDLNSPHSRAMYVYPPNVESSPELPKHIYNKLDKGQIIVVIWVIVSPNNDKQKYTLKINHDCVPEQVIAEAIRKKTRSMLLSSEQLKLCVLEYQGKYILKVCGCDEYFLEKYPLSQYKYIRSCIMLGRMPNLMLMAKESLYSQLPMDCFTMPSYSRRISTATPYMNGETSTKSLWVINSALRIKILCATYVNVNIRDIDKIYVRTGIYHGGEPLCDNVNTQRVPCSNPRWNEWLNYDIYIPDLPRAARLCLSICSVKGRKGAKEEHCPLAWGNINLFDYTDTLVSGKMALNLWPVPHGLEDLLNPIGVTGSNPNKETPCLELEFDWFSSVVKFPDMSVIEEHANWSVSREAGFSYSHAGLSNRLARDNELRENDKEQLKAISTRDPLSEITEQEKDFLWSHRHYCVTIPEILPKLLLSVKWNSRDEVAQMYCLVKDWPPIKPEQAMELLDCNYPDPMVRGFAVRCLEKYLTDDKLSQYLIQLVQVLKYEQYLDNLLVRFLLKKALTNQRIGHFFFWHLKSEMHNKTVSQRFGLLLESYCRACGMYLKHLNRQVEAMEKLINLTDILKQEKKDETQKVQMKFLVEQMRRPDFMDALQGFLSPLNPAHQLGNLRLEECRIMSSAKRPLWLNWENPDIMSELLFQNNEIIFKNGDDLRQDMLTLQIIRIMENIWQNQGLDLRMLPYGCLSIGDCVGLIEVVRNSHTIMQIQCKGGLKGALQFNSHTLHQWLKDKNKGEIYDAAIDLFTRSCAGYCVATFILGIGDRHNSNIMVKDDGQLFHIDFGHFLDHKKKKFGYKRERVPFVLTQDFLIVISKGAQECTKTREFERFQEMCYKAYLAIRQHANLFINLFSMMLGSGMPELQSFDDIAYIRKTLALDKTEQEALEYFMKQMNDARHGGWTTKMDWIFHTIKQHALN
Sequence (P27986 whole entry partner): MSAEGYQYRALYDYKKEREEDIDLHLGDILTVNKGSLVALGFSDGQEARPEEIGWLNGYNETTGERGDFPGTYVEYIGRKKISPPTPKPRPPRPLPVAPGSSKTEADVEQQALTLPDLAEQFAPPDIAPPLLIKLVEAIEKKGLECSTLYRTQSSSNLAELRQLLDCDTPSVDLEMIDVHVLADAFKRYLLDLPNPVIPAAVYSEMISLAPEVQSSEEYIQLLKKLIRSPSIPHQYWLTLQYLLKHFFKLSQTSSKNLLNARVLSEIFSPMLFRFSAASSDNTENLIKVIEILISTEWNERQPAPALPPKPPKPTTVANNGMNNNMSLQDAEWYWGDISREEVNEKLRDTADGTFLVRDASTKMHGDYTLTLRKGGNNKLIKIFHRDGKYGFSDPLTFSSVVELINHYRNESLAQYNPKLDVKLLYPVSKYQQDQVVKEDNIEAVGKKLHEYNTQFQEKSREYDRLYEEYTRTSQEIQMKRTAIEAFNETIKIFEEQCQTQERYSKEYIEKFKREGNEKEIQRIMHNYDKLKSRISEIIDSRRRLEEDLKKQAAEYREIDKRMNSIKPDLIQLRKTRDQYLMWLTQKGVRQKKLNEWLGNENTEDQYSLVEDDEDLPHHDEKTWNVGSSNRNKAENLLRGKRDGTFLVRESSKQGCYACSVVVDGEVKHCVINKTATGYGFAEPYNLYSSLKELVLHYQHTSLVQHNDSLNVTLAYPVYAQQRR
run-description: PI3K-Alpha Kinase (PIK3CA) biochemical activity, H1047R mutant (ADP-Glo)
details: PIP2diC8 lipid substrate, 20 uM ATP
pIC50: −log10 of the molar value.
recorded-metric: pIC50

Past entries and their recorded results:
molecule="Cc1cc(C(C)Nc2ccccc2C(=O)O)c2oc(-c3ccc(OC(C)C)nc3)cc(=O)c2c1 (single isomer, unassigned; isomer 1) [Example 30]" recorded_metric=pIC50 recorded_result="5.00 to 5.30"
molecule="Cc1cc(C(C)Nc2ccccc2C(=O)O)c2oc(-n3ccnc3)cc(=O)c2c1 (single isomer, unassigned) [Example 59]" recorded_metric=pIC50 recorded_result="> 6.30"
molecule="Cc1cc(C(C)Nc2ccccc2C(=O)O)c2oc(-c3cnccn3)cc(=O)c2c1 (single isomer, unassigned; isomer 2) [Example 16]" recorded_metric=pIC50 recorded_result="< 5.00"
molecule="COc1ncc(-c2cc(=O)c3cc(C)cc(C(C)Nc4ccccc4C(=O)O)c3o2)cn1 (single isomer, unassigned) [Example 4]" recorded_metric=pIC50 recorded_result="> 6.30"
molecule="COc1ncc(-c2cc(=O)c3cc(C)cc(C(C)Nc4ccccc4C(=O)O)c3o2)cn1 (single isomer, unassigned) [Example 5]" recorded_metric=pIC50 recorded_result="< 5.00"
molecule="Cc1cc(C(C)Nc2ccccc2C(=O)O)c2oc(-c3ccccn3)cc(=O)c2c1 (single isomer, unassigned; isomer 2) [Example 18]" recorded_metric=pIC50 recorded_result="< 5.00"
molecule="Cc1cc(C(C)Nc2ccccc2C(=O)O)c2oc(-c3cnc(C)nc3)cc(=O)c2c1 (single isomer, unassigned; isomer 1) [Example 32]" recorded_metric=pIC50 recorded_result="> 6.30"
molecule="Cc1cc(C(C)Nc2ccccc2C(=O)O)c2oc(-c3cnccn3)cc(=O)c2c1 (single isomer, unassigned; isomer 1) [Example 15]" recorded_metric=pIC50 recorded_result="> 6.30"

Exercise: Provide pIC50 value for the following molecule: Cc1cc(C(C)Nc2ccccc2C(=O)O)c2oc(-c3cnn(C)c3)cc(=O)c2c1 (centres unmarked) [Example 47]
Solution: 6.00 to 6.30

Exercise: Provide pIC50 value for the following molecule: Cc1cc(C(C)Nc2ccccc2C(=O)O)c2oc(-c3cnc(C)nc3)cc(=O)c2c1 (single isomer, unassigned; isomer 2) [Example 33]
Solution: < 5.00

Exercise: Provide pIC50 value for the following molecule: Cc1cc(C(C)Nc2ccccc2C(=O)O)c2oc(-c3ccc(OC(C)C)nc3)cc(=O)c2c1 (single isomer, unassigned; isomer 2) [Example 31]
Solution: > 6.30

====

subject-of-test: human full length PIK3KA H1047R mutant (p110α/p85α complex) (Homo sapiens, UniProt P42336, H1047R)
Construct: Recombinant, catalytically active human full length PIK3KA Wild-type and H1047R mutant were purchased; 6xHis (N); purchased EMD Millipore Sigma 14-792M
run-description: PI3K-Alpha Kinase (PIK3CA) biochemical activity, H1047R mutant (ADP-Glo)
details: Soy PI lipid substrate, 20 uM ATP
Attribute: IC50

Past entries and their recorded results:
molecule="Cc1cc(C(C)Nc2ccccc2C(=O)O)c2oc(-c3nccnc3C)cc(=O)c2c1 (single isomer, unassigned; isomer 2)" recorded_result="< 500 nM"
molecule="COc1ccnc(-c2cc(=O)c3cc(C)cc(C(C)Nc4ccccc4C(=O)O)c3o2)c1 (single isomer, unassigned)" recorded_result="500 to 1000 nM"
molecule="Cc1cc(C(C)Nc2ccc(F)c(F)c2C(=O)O)c2oc(-c3cnn(-c4ccc(C#N)cc4)c3)cc(=O)c2c1 (single isomer, unassigned) [Example 95]" recorded_result="1000 to 5000 nM"

Exercise: Provide IC50 value for the following molecule: Cc1cc(C(C)Nc2ccc(Cl)nc2C(=O)O)c2oc(-c3ccccn3)c(C)c(=O)c2c1 (single isomer, unassigned) [Example 121]
Solution: < 500 nM

Exercise: Provide IC50 value for the following molecule: Cc1cc(C(C)Nc2ccccc2C(=O)O)c2oc(-c3cn(-c4ccc(C#N)cc4)nc3C)cc(=O)c2c1 (single isomer, unassigned)
Solution: 500 to 1000 nM

Exercise: Provide IC50 value for the following molecule: Cc1cc(C(C)Nc2ccc(Cl)nc2C(=O)O)c2oc(-c3cccnc3)c(C)c(=O)c2c1 (single isomer, unassigned; isomer 1)
Solution: < 500 nM

Exercise: Provide IC50 value for the following molecule: Cc1c(-c2cncc(F)c2)oc2c(C(C)Nc3ccc(Cl)nc3C(=O)O)cc(C(F)(F)F)cc2c1=O (single isomer, unassigned; isomer 1)
Solution: < 500 nM

Exercise: Provide IC50 value for the following molecule: Cc1cc(C(C)Nc2ccccc2C(=O)O)c2oc(-c3cnn(-c4ccc(C#N)nc4)c3)cc(=O)c2c1 (single isomer, unassigned)
Solution: < 500 nM

Exercise: Provide IC50 value for the following molecule: Cc1cc(C(C)Nc2ccccc2C(=O)O)c2oc(-n3cccn3)cc(=O)c2c1 (single isomer, unassigned)
Solution: < 500 nM

Exercise: Provide IC50 value for the following molecule: Cc1cc(C(C)Nc2ccccc2C(=O)O)c2oc(-c3cnn(-c4ccc(OC(F)(F)F)cc4)c3)cc(=O)c2c1 (single isomer, unassigned)
Solution: 500 to 1000 nM

Exercise: Provide IC50 value for the following molecule: Cc1cc(C(C)Nc2ccccc2C(=O)O)c2oc(-c3ncccn3)cc(=O)c2c1 (single isomer, unassigned; isomer 2)
Solution: < 500 nM

Exercise: Provide IC50 value for the following molecule: Cc1cc(C(C)Nc2ccccc2C(=O)O)c2oc(-c3cn[nH]c3)cc(=O)c2c1 (single isomer, unassigned)
Solution: < 500 nM
